For reference, Transdermal penetrability of MZR (hairless mouse) measured on hairless mouse skin (Laboskin):
recordedEndpoint: Transdermal penetrability of MZR (hairless mouse)

# compound, observed
data = [
    ("CCCCC/C=C\\C/C=C\\CCCCCCCC(=O)O", "Penetrated"),
    ("CCCCCCCCCCCCCC(=O)O", "Penetrated"),
    ("O=C(O)CCC(=O)O", "Not penetrated"),
    ("CCCCCCCC/C=C\\CCCCCCCC(=O)O", "Penetrated"),
    ("COc1cc(C(O)C(=O)O)ccc1O (stereo not shown)", "Not penetrated"),
    ("CC(=O)O", "Not penetrated"),
    ("CCCCCCCCCCCC(=O)O", "Penetrated"),
]

====

For reference, Transdermal penetrability of MZR measured on hairless mouse skin (Laboskin):
recordedEndpoint: Transdermal penetrability of MZR

# compound, recordedEndpoint, observed
data = [
    ("CC(O)CNCC(C)O (centres unmarked)", "Transdermal penetrability of MZR", "Not penetrated"),
    ("NCCc1c[nH]cn1", "Transdermal penetrability of MZR", "Penetrated"),
    ("N=C(N)N", "Transdermal penetrability of MZR", "Penetrated"),
    ("C[N+](C)(C)CCO", "Transdermal penetrability of MZR", "Penetrated"),
    ("C[N+](C)(C)CCOP(=O)([O-])OC[C@H](O)CO", "Transdermal penetrability of MZR", "Not penetrated"),
]

====

- test: Solubility / state of the active ingredient in the preparation (equimolar salt or enhancer)
- Assay type: physicochemical
- conditionsUsed: solubility of MZR in the equimolar salt of the basic compound a) with isostearic acid or linoleic acid

# molecule, MZR dissolution
records = [
    ("C[N+](C)(C)CCOP(=O)([O-])OC[C@H](O)CO", "Insoluble"),
    ("CC(O)CN(CC(C)O)CC(C)O (centres unmarked)", "Insoluble"),
    ("CCn1cc[n+](C)c1.O=S(=O)([O-])C(F)(F)F", "Insoluble"),
    ("CC(O)CNCC(C)O (centres unmarked)", "Insoluble"),
    ("NCCc1c[nH]cn1", "Dissolved"),
    ("N=C(N)N", "Dissolved"),
    ("COP(=O)([O-])OC.Cn1cc[n+](C)c1", "Insoluble"),
    ("Nc1ncnc2[nH]cnc12", "Insoluble"),
]
